Substrate: NC(=O)C1=CN([C@@H]2O[C@H](COP(=O)(O)OP(=O)(O)OC[C@H]3O[C@@H](n4cnc5c(N)ncnc54)[C@H](O)[C@@H]3O)[C@@H](O)[C@H]2O)C=CC1
MEASUREMENT NOTES: purified protein, by the assay type
CONDITION SET: other: Table 15, substrate NADH; tag N; apparent values; pH 8.0
Listed here are proteins together with their documented log10(Km).
OBSERVED PROPERTY: log10(Km) (log10 of the value in µM)

[[record]]
protein = "Comamonas testosteroni 3α-HSDH dual mutant [P185A/T188A], N-terminal hexahistidine tag (Comamonas testosteroni; P185A/T188A) (protein) MSIIVISGCATGIGAATRKVLEAAGHQIVGIDIRDAEVIADLSTAEGRKQAIADVLAKCSKGMDGLVLCAGLGPQTKVLGNVVSVNYFGATELMDAFLPALKKGHQPAAVVISSVASAHLAFDKNPLALALEAGEEAKARAIVEHAGEQGGNLAYAGSKNALTVAVRKRAAAWGEAGVRLNTIAAGAAETPLLQAGLQDPRYGESIAKFVPPMGRRAEPSEMASVIAFLMSPAASYVHGAQIVIDGGIDAVMRPTQF"
test_result = 2.52

[[record]]
protein = "Comamonas testosteroni 3α-HSDH dual mutant [L68A/T188S], N-terminal hexahistidine tag (Comamonas testosteroni; L68A/T188S) (protein) MSIIVISGCATGIGAATRKVLEAAGHQIVGIDIRDAEVIADLSTAEGRKQAIADVLAKCSKGMDGLVACAGLGPQTKVLGNVVSVNYFGATELMDAFLPALKKGHQPAAVVISSVASAHLAFDKNPLALALEAGEEAKARAIVEHAGEQGGNLAYAGSKNALTVAVRKRAAAWGEAGVRLNTIAPGASETPLLQAGLQDPRYGESIAKFVPPMGRRAEPSEMASVIAFLMSPAASYVHGAQIVIDGGIDAVMRPTQF"
test_result = 1.68

[[record]]
protein = "Comamonas testosteroni 3α-HSDH mutant [T188S], N-terminal hexahistidine tag (Comamonas testosteroni; T188S) (protein) MSIIVISGCATGIGAATRKVLEAAGHQIVGIDIRDAEVIADLSTAEGRKQAIADVLAKCSKGMDGLVLCAGLGPQTKVLGNVVSVNYFGATELMDAFLPALKKGHQPAAVVISSVASAHLAFDKNPLALALEAGEEAKARAIVEHAGEQGGNLAYAGSKNALTVAVRKRAAAWGEAGVRLNTIAPGASETPLLQAGLQDPRYGESIAKFVPPMGRRAEPSEMASVIAFLMSPAASYVHGAQIVIDGGIDAVMRPTQF"
test_result = 1.94

[[record]]
protein = "Comamonas testosteroni 3α-HSDH mutant [T188A], N-terminal hexahistidine tag (Comamonas testosteroni; T188A) (protein) MSIIVISGCATGIGAATRKVLEAAGHQIVGIDIRDAEVIADLSTAEGRKQAIADVLAKCSKGMDGLVLCAGLGPQTKVLGNVVSVNYFGATELMDAFLPALKKGHQPAAVVISSVASAHLAFDKNPLALALEAGEEAKARAIVEHAGEQGGNLAYAGSKNALTVAVRKRAAAWGEAGVRLNTIAPGAAETPLLQAGLQDPRYGESIAKFVPPMGRRAEPSEMASVIAFLMSPAASYVHGAQIVIDGGIDAVMRPTQF"
test_result = 2.05

[[record]]
protein = "Comamonas testosteroni 3α-HSDH dual mutant [L68A/T188A], N-terminal hexahistidine tag (Comamonas testosteroni; L68A/T188A) (protein) MSIIVISGCATGIGAATRKVLEAAGHQIVGIDIRDAEVIADLSTAEGRKQAIADVLAKCSKGMDGLVACAGLGPQTKVLGNVVSVNYFGATELMDAFLPALKKGHQPAAVVISSVASAHLAFDKNPLALALEAGEEAKARAIVEHAGEQGGNLAYAGSKNALTVAVRKRAAAWGEAGVRLNTIAPGAAETPLLQAGLQDPRYGESIAKFVPPMGRRAEPSEMASVIAFLMSPAASYVHGAQIVIDGGIDAVMRPTQF"
test_result = 1.83

[[record]]
protein = "Comamonas testosteroni 3α-HSDH mutant [L68A], N-terminal hexahistidine tag (Comamonas testosteroni; L68A) (protein) MSIIVISGCATGIGAATRKVLEAAGHQIVGIDIRDAEVIADLSTAEGRKQAIADVLAKCSKGMDGLVACAGLGPQTKVLGNVVSVNYFGATELMDAFLPALKKGHQPAAVVISSVASAHLAFDKNPLALALEAGEEAKARAIVEHAGEQGGNLAYAGSKNALTVAVRKRAAAWGEAGVRLNTIAPGATETPLLQAGLQDPRYGESIAKFVPPMGRRAEPSEMASVIAFLMSPAASYVHGAQIVIDGGIDAVMRPTQF"
test_result = 1.23

